# protocol: antimalarial activity against Dd2 strain (AID 2302);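 also: 0% = DMSO untreated growth and 100% = chloroquine plus artemisinin killed control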
# settings: P. falciparum Dd2 in RBCs, LDH growth readout, 72 h; at 2 µM; hits give high values
Would you mind telling me the reported growth inhibition of each entry?
Dear colleague, please return just the value in %, with no unit written.

Q. Name the reported growth inhibition value associated with the molecule CCCCCCCNCCNc1cc(C)nc2ccccc12
A. 99

Q. Name the reported growth inhibition value associated with the molecule CC(C)Sc1nc2c(c(=O)n1CCc1ccccc1)C1(CCCCC1)Cc1ccccc1-2
A. 5

Q. Name the reported growth inhibition value associated with the molecule CC(Cc1ccc(NS(=O)(=O)c2ccc(CC(C)NCCc3cccc(Cl)c3)cc2)cc1)NCCc1cccc(Cl)c1 (centres undefined)
A. 38

Q. Name the reported growth inhibition value associated with the molecule CC(C)(C)c1ccc(CN2CCC(CNC(=O)c3cc(-c4cccc(F)c4)cs3)C2)cc1 (centres undefined)
A. 55

Q. Name the reported growth inhibition value associated with the molecule Cc1cccc2[nH]c(-c3ccc(-c4ccc(CN5CCN(c6ccncc6)CC5)cc4)s3)nc12
A. 98

Q. Name the reported growth inhibition value associated with the molecule O=C(NC1CC1)c1ccc(N2CCCC(COc3ccccc3F)C2)nc1 (centres undefined)
A. 92

Q. Name the reported growth inhibition value associated with the molecule CC(C)c1cccc(C(NC(=O)[C@H]2Cc3ccccc3CN2C(=O)c2cccc(N3CCOCC3)c2)C2CCCC2)c1 (some centres undefined)
A. 96

Q. Name the reported growth inhibition value associated with the molecule CN(C)CCCN1CCN(C(=O)c2cc3cc(-c4ccccc4)ccc3n2S(=O)(=O)c2ccccc2)CC1
A. 94

Q. Name the reported growth inhibition value associated with the molecule CC(CN(C)C)C(=O)Nc1ccc(-c2ccc(-c3nc4ccc(F)cc4[nH]3)cc2)cc1 (centres undefined)
A. 95

Q. Name the reported growth inhibition value associated with the molecule N#Cc1ccc(S(=O)(=O)N2C(c3cccc([N+](=O)[O-])c3)C(C(=O)c3ccccc3)N(C3CCCCC3)C2c2cccc([N+](=O)[O-])c2)cc1 (centres undefined)
A. 79

Q. Name the reported growth inhibition value associated with the molecule Cc1c(S(=O)(=O)Nc2ccc3nccc(N4CCN[C@H](C)C4)c3c2)sc2ccc(Cl)cc12
A. 0

Q. Name the reported growth inhibition value associated with the molecule O=C(/C=C/c1ccc2ccccc2c1)NCC1(c2ccc(-c3ccccc3)cc2)CCOCC1
A. 34

Q. Name the reported growth inhibition value associated with the molecule CC(C)CCCC(C)(C)NC[C@@H](O)[C@H](Cc1ccccc1)NC(=O)c1cccc(OCC2CC2)c1
A. 91

Q. Name the reported growth inhibition value associated with the molecule CNc1c2c(nc3ccc(NC(=O)CCCCCCc4ccccc4)cc13)CCCC2
A. 82

Q. Name the reported growth inhibition value associated with the molecule COc1ccc(CCNCCCCCCNCCc2ccccc2Cl)cc1OC
A. 3

Q. Name the reported growth inhibition value associated with the molecule COc1ccc(O)c(C(=O)c2cc(C#N)c(=O)n(-c3ccc(Oc4ccccc4)cc3)c2)c1
A. 20

Q. Name the reported growth inhibition value associated with the molecule O=C(/C=C/c1ccc(Cl)c(Cl)c1)NCCCCCN1CC[C@H](NC(=O)Nc2ccc(Oc3ccccc3)cc2)C1
A. 14

Q. Name the reported growth inhibition value associated with the molecule COCCNCc1ccc(-c2cccc(CNC3CCN(Cc4ccccc4)CC3)c2)cc1
A. 101

Q. Name the reported growth inhibition value associated with the molecule Cc1ccc2ccccc2c1CCCON1C(N)=NC(N)=NC1(C)C
A. 97
